SYSTEM: rat adrenergic α1B receptor (Rattus norvegicus)
Construct: rat adrenergic α1B receptor obtained from Wistar Rat liver; from tissue; host or cells: Wistar rat liver
Sequence (P15823 whole entry): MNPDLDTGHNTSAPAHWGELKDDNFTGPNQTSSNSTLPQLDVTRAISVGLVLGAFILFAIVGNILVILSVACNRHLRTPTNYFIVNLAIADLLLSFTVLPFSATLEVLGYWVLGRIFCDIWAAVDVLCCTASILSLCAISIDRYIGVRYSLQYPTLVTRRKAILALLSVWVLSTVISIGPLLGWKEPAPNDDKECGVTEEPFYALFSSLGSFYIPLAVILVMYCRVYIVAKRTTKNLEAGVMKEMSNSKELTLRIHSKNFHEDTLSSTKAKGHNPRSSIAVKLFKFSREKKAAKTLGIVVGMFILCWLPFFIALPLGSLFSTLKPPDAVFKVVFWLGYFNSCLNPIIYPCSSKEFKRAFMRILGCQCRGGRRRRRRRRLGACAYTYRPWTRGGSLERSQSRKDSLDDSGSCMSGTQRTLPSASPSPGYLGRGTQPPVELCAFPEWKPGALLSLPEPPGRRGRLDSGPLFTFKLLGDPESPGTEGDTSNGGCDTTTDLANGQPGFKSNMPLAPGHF
TEST_PROTOCOL: Radioligand binding, adrenergic α1B ([3H]Prazosin)
CONDITION_SET: 0.1 μM compound; read-out: Percentage inhibition of ligand binding, Adrenergic α1B
# inhibition at 0.1 µM per entry
QUANTITY_NAME: inhibition at 0.1 µM (%)

MOLECULE	QUANTITY_NAME	RECORDED_MEASUREMENT
Cc1ccc2c(c1)c1c(n2CC(C)(OC(=O)C(C)(C)C)c2cccnc2)CCN(C)C1 (stereo not drawn) [II-16a]	inhibition at 0.1 µM	20
Cc1ccc2c(c1)c1c(n2/C=C/c2cccc3cnccc23)CCN(C)C1	inhibition at 0.1 µM	93
Cc1ccc2c(c1)c1c(n2CC(O)c2ccncc2)CCN(CC(=O)O)C1 (stereo not drawn)	inhibition at 0.1 µM	10
Cc1ccc(CCn2c3c(c4c(Cl)c(Cl)ccc42)CN(C)CC3)cn1	inhibition at 0.1 µM	13
C/C(=C\n1c2c(c3cc(C)ccc31)CN(C)CC2)C1CCCCC1	inhibition at 0.1 µM	50
CN1CCc2c(n(CC(O)c3ccc(F)c(F)c3)c3ccc(Cl)cc23)CC1 (single isomer, unassigned) [339a]	inhibition at 0.1 µM	13
Cc1ccc2c(c1)c1c(n2CCc2cscc2C)CCN(C)C1	inhibition at 0.1 µM	94
C/C(=C/n1c2c(c3cc(C)ccc31)CN(C)CC2)c1ccc(C)s1	inhibition at 0.1 µM	71
CCc1ccc(/C(C)=C/n2c3c(c4cc(C)ccc42)CN(C)CC3)cn1	inhibition at 0.1 µM	54
C/C(=C\n1c2c(c3cc(Cl)ccc31)CN(C)CC2)c1cccc(S(C)(=O)=O)c1	inhibition at 0.1 µM	20
CN1CCc2c(c3cc(CO)ccc3n2CC(C)(O)c2cccnc2)C1 (stereo not drawn)	inhibition at 0.1 µM	2
OC(Cn1c2c(c3cccnc31)C1CCCN1CC2)c1ccncc1 (stereo not drawn)	inhibition at 0.1 µM	7
CN1CCc2c(n(CC(O)c3cccnc3)c3ccc(Cl)cc23)C1 (stereo not drawn)	inhibition at 0.1 µM	11
C/C(=C/n1c2c(c3cc(C)ccc31)CCN(C)CC2)c1cccc(F)c1	inhibition at 0.1 µM	95
Cc1ccc(CCn2c3c(c4ccc(Cl)cc42)CN(C)CC3)cn1	inhibition at 0.1 µM	4
Cc1ccc2c(c1)c1c(n2C#Cc2cnc3ccccc3c2)CCN(C)C1	inhibition at 0.1 µM	94
Cc1ccc2c(c1)c1c(n2/C=C/c2cnc3ccccc3c2)CCN(C)C1	inhibition at 0.1 µM	85
C/C(=C\n1c2c(c3cc(C)ccc31)CN(C)CC2)c1ccc2[nH]cnc2c1	inhibition at 0.1 µM	33
Cc1ccc2c(n1)c1c(n2CC(C)(O)c2cccnc2)CCN2CCCC12 (stereo not drawn)	inhibition at 0.1 µM	8
Cc1ccc2c(c1)c1c(n2CC(c2cnccn2)N(C)C)CCN2CCCC12 (stereo not drawn)	inhibition at 0.1 µM	95
CN1CCc2c(c3cc(Cl)c(Cl)cc3n2CC(C)(O)c2ccncc2)C1 (stereo not drawn)	inhibition at 0.1 µM	54
Cc1ccc2c(c1)c1c(n2CC(NC2CCC2)c2ccncc2)CCN(C)C1 (stereo not drawn)	inhibition at 0.1 µM	9
Cc1ccc2c(c1)c1c(n2CC(NC(C)C)c2ccncc2)CCN(C)C1 (stereo not drawn)	inhibition at 0.1 µM	7
Cc1ccc2c(c1)c1c(n2CC(O)c2ccncc2)CCN(CCO)C1 (stereo not drawn)	inhibition at 0.1 µM	23
Cc1ccc(C#Cn2c3c(c4cc(C)ccc42)CN(C)CC3)nc1	inhibition at 0.1 µM	95
C/C(=C\n1c2c(c3cc(C)ccc31)CN(C)CC2)c1cc(C)cs1	inhibition at 0.1 µM	63
CC(Cn1c2c(c3ccccc31)CN(C)CC2)c1ccc(F)cc1 (single isomer, unassigned) [272a]	inhibition at 0.1 µM	27
CSc1cccc(/C(C)=C/n2c3c(c4cc(Cl)ccc42)CN(C)CC3)c1	inhibition at 0.1 µM	15
C/C(=C\n1c2c(c3cc(C)ccc31)CN(C)CC2)c1ccc2ccccc2c1	inhibition at 0.1 µM	50
Cc1ccc2c(c1)c1c(n2CC(C)c2ccncc2)CCN(C)C1 (stereo not drawn)	inhibition at 0.1 µM	55
C/C(=C\n1c2c(c3cc(C)ccc31)CN(C)CC2)c1cncc2ccccc12	inhibition at 0.1 µM	13
C/C(=C/n1c2c(c3cc(C)ccc31)CN(C)CC2)c1cc2ccccc2s1	inhibition at 0.1 µM	73
CN1CCc2c(c3cc(CO)ccc3n2CC(O)c2ccncc2)C1 (stereo not drawn)	inhibition at 0.1 µM	11
Cc1ccc2c(c1)c1c(n2CCc2cccc3c2CCNC3)CCN(C)C1	inhibition at 0.1 µM	89
Cc1ccc2c(c1)c1c(n2CC(O)c2ccc(O)c(O)c2)CCN(C)C1 (stereo not drawn)	inhibition at 0.1 µM	68
C/C(=C\n1c2c(c3cc(Cl)ccc31)CN(C)C(C)C2)c1ccc(C)nc1 (stereo not drawn)	inhibition at 0.1 µM	51

The measured values listed here are drawn from patent US8791132B2.
